// reported HDAC6 selectivity (fold) per item
- System Under Test: human recombinant HDAC6 (Homo sapiens, UniProt Q9UBN7)
- Construct: purchased Calbiochem 382180
- Sequence (Q9UBN7 whole entry): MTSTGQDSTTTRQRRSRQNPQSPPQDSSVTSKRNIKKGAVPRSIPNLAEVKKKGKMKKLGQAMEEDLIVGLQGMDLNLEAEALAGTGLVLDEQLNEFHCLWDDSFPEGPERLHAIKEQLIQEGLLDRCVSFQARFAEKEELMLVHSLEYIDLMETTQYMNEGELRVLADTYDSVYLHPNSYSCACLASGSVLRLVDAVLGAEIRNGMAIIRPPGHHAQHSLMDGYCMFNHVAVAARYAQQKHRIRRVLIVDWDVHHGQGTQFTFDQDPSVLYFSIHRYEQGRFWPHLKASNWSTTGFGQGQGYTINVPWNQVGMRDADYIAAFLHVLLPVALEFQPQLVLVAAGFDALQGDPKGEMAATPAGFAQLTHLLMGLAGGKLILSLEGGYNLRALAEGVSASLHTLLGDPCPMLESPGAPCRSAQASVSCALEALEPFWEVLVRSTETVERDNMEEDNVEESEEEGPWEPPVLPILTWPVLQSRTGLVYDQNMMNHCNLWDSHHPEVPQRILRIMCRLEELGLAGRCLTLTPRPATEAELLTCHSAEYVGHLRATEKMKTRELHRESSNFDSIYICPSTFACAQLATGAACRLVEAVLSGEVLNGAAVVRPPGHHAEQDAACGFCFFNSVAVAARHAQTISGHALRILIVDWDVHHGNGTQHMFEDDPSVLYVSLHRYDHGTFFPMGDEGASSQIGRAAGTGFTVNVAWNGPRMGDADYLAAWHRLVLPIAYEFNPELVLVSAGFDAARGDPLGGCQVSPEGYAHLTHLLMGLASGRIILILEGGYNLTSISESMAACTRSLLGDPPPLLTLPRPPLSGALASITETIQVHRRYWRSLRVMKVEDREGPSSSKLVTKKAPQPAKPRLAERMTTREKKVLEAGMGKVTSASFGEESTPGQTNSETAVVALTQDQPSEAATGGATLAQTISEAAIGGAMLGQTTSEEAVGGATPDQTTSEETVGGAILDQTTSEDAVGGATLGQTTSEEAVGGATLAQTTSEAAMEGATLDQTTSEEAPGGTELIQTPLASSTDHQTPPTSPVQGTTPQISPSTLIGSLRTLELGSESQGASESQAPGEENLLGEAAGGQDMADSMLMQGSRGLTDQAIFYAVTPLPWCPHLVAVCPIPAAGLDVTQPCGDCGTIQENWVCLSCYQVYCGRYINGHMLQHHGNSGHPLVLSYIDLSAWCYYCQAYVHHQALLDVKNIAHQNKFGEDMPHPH
- Test Method Notes: HDAC6 enzyme activity inhibition assay (in vitro, fluorimetric)
- Assay type: biochemical
- Measurement Context: HDAC6 selectivity over HDAC1

Smiles | System Under Test | HDAC6 selectivity (fold)
C[C@@H]1CN(Cc2ccc(C(=O)NO)cc2)C[C@H](C)N1CC(F)(F)F | human recombinant HDAC6 (Homo sapiens, UniProt Q9UBN7) | >125 fold
C[C@@H]1CN(Cc2ccc(C(=O)NO)cc2)C[C@H](C)N1Cc1ccccc1Cl | human recombinant HDAC6 (Homo sapiens, UniProt Q9UBN7) | >909 fold
C[C@@H]1CN(C(=O)c2cccc(CN3CCCC3)c2)C[C@H](C)N1Cc1ccc(/C=C/C(=O)NO)cc1 | human recombinant HDAC6 (Homo sapiens, UniProt Q9UBN7) | 2 fold
C[C@@H]1CN(Cc2ccc(C(=O)NO)cc2)C[C@H](C)N1Cc1cocn1 | human recombinant HDAC6 (Homo sapiens, UniProt Q9UBN7) | >2000 fold
C[C@@H]1CN(Cc2ccc(C(=O)NO)nc2)C[C@H](C)N1Cc1cccc(CN2CCOCC2)c1 | human recombinant HDAC6 (Homo sapiens, UniProt Q9UBN7) | >13.3 fold
C[C@@H]1CN(C(=O)c2cccnc2)C[C@H](C)N1Cc1ccc(C(=O)NO)cc1 | human recombinant HDAC6 (Homo sapiens, UniProt Q9UBN7) | >65 fold
